# phenotypic distance annotations
test system: E34 (patient-derived glioblastoma stem cells of proneural subtype); assay: phenotypic distance (Euclidean, principal components) from DMSO controls (arbitrary units); higher = stronger morphological change; conditions: 1000 nM; exposure time: 72 h
Counter-ions that a name gives are not always drawn.

compound	phenotypic distance
CCn1cc(C(=O)O)c(=O)c2cc(F)c(N3CCNCC3)nc21 [Enoxacin]	0.843
CCC(C)(C)c1ccc(CC(C)CN2C[C@@H](C)O[C@@H](C)C2)cc1 (some centres undefined) [Amorolfine hydrochloride]	0.796
C/C=C(\C)C(=O)N[C@@H](c1ccccc1)[C@@H](O)C(=O)O[C@H]1C[C@@]2(O)[C@@H](OC(=O)c3ccccc3)[C@@H]3[C@]4(OC(C)=O)CO[C@@H]4C[C@H](O)[C@@]3(C)C(=O)[C@H](OC(C)=O)C(=C1C)C2(C)C [Cephalomannine]	3.73
CCc1c2c(nc3ccc(OC(=O)N4CCC(N5CCCCC5)CC4)cc13)-c1cc3c(c(=O)n1C2)COC(=O)[C@]3(O)CC [Irinotecan]	4.25

* * *

system: E57 (patient-derived glioblastoma stem cells of mesenchymal subtype); experiment: phenotypic distance (Euclidean, principal components) from DMSO controls (arbitrary units); higher = stronger morphological change; settings: 3000 nM; exposure time: 72 h
Counter-ions that a name gives are not always drawn.
recorded metric: phenotypic distance

compound	observed measurement
CCOC(=O)OC(C)OC(=O)[C@@H]1N2C(=O)[C@@H](NC(=O)[C@H](N)c3ccccc3)[C@H]2SC1(C)C (some centres undefined) [Bacampicillin hydrochloride]	0.604
COC(=O)Nc1nc2cc(Sc3ccccc3)ccc2[nH]1 [Fenbendazole]	4.66
O=C1CC[C@@H](C(=O)N2CSC[C@H]2C(=O)O)N1 [Pidotimod]	0.651
NC(=O)c1cccc2cn(-c3ccc([C@@H]4CCCNC4)cc3)nc12 [Niraparib]	1.51

* * *

tested on: E28 (patient-derived glioblastoma stem cells of classical subtype); experiment: phenotypic distance (Euclidean, principal components) from DMSO controls (arbitrary units); higher = stronger morphological change; settings: 4.1 nM; exposure time: 72 h
Where a name gives a salt, the structure may show the parent alone.

molecule	phenotypic distance
Cc1ccc(C(=O)Nc2ccc(CN3CCN(C)CC3)c(C(F)(F)F)c2)cc1C#Cc1cnc2cccnn12	0.791
CN[C@@H]1[C@@H](O)[C@@H](O[C@@H]2[C@@H](O)[C@H](O[C@H]3OC(CN)=CC[C@H]3N)[C@@H](N)C[C@H]2N)OC[C@]1(C)O [Sisomicin sulfate]	0.802
Cc1cc(Nc2cc(CN3CCOCC3)c3nc(C)c(Cc4ccc(Cl)cc4F)n3n2)n[nH]1	0.402
COc1cc2c(cc1O)CC[C@@H]1[C@@H]2CC[C@]2(C)[C@@H](O)CC[C@@H]12	0.862
CN(C)CCN(Cc1ccc(Cl)cc1)c1ccccn1 [Chloropyramine hydrochloride]	1.02
COc1cc([C@@H]2c3cc4c(cc3[C@H](O)[C@H]3COC(=O)[C@H]23)OCO4)cc(OC)c1OC	3.02
Cc1cc(C(C)(C)CC(C)(C)C)ccc1OCCOCC[N+](C)(C)Cc1ccccc1 [Methyl benzethonium chloride]	0.909

* * *

tested on: E13 (patient-derived glioblastoma stem cells of classical subtype); assay: surviving fraction (nuclei count normalised to DMSO); higher = more cells surviving (less toxic); details: 12.3 nM; exposure time: 72 h;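 note: nuclei counted by high-content imaging of Hoechst-stained cells in laminin-coated 384-well plates, relative to 0.1% DMSO vehicle wells, with staurosporine as cell-death control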
Structures can show the parent of a compound that is named as a salt.
# surviving fraction annotations

molecule	surviving fraction
CC[C@]1(O)C[C@@H]2CN(CCc3c([nH]c4ccccc34)[C@@](C(=O)OC)(c3cc4c(cc3OC)N(C)[C@H]3[C@@](O)(C(=O)OC)[C@H](OC(C)=O)[C@]5(CC)C=CCN6CC[C@]43[C@@H]65)C2)C1 [Vinblastine sulfate]	0.177
C=C[C@H]1CN2CC[C@H]1C[C@@H]2[C@@H](O)c1ccnc2ccc(OC)cc12 [Quinidine hydrochloride monohydrate]	1.04
CCC1=C[C@@H]2CN(C1)Cc1c([nH]c3ccccc13)[C@@](C(=O)OC)(c1cc3c(cc1OC)N(C)[C@H]1[C@@](O)(C(=O)OC)[C@H](OC(C)=O)[C@]4(CC)C=CCN5CC[C@]31[C@@H]54)C2 [Vinorelbine Tartrate]	0.903
CCn1cc(C(=O)O)c(=O)c2cc(F)c(N3CCNCC3)nc21	1.08
COC(=O)Nc1nc2cc(C(=O)c3ccc(F)cc3)ccc2[nH]1	1.12
C#C[C@]1(O)CC[C@H]2[C@@H]3CCc4cc(OC5CCCC5)ccc4[C@H]3CC[C@@]21C	1.04
C/C(=C\c1csc(C)n1)[C@@H]1C[C@@H]2O[C@]2(C)CCC[C@H](C)[C@H](O)[C@@H](C)C(=O)C(C)(C)[C@@H](O)CC(=O)N1 [Ixabepilone]	0.286
CC(C)(C)C1CCN(C(=O)n2ncc(C(O)(c3ccccc3)c3ccccc3)n2)CC1	0.883
CC(C)C[C@H](NC(=O)CNC(=O)c1cc(Cl)ccc1Cl)B1OC(=O)C(CC(=O)O)(CC(=O)O)O1	0.00954
COc1cc2ncnc(Nc3cccc(Br)c3)c2cc1OC	1.02
Cc1cc(CN2CCN(c3c(Br)cnc4nc(-c5ccc(N6CCN(C)CC6)cc5)[nH]c34)CC2)no1	0.966
C[C@H]1O[C@@H](O[C@H]2[C@@H](O)C[C@H](O[C@H]3[C@@H](O)C[C@H](O[C@H]4CC[C@@]5(C)[C@H](CC[C@@H]6[C@@H]5C[C@@H](O)[C@]5(C)[C@@H](C7=CC(=O)OC7)CC[C@]65O)C4)O[C@@H]3C)O[C@@H]2C)C[C@H](O)[C@@H]1O	0.448
COC(=O)Nc1nc2cc(Sc3ccccc3)ccc2[nH]1	1.07
Cc1c(-c2ccc(-c3ccccc3F)cc2)nc2ccc(F)cc2c1C(=O)O [Brequinar sodium salt hydrate]	1.08
C[C@]12CC[C@H](O)C[C@H]1CC[C@@H]1[C@@H]2C[C@@H](O)[C@]2(C)[C@@H](C3=CC(=O)OC3)CC[C@]12O	1.05
CC[C@@]1(O)C(=O)OCc2c1cc1n(c2=O)Cc2cc3c(CN(C)C)c(O)ccc3nc2-1	0.381
COc1ccc2[nH]c([S+]([O-])Cc3ncc(C)c(OC)c3C)nc2c1 (stereo not drawn)	0.938
COC(=O)Nc1nc2cc(C(=O)c3ccccc3)ccc2[nH]1	0.88
Cc1cc(Nc2cc(N3CCN(C)CC3)nc(Sc3ccc(NC(=O)C4CC4)cc3)n2)n[nH]1	0.951
Cc1cccn2c(=O)c(-c3nnn[nH]3)cnc12	0.971
CCOC(=O)OC(C)OC(=O)[C@@H]1N2C(=O)[C@@H](NC(=O)[C@H](N)c3ccccc3)[C@H]2SC1(C)C (stereo partly drawn) [Bacampicillin hydrochloride]	0.951
Cc1[nH]nc(C(F)(F)F)c1Cc1sc2c(c1C(=O)N1C[C@](C)(O)CO1)c(=O)n(C)c(=O)n2C(C)C	0.878
C=C(C)[C@H]1Cc2c(ccc3c2O[C@@H]2COc4cc(OC)c(OC)cc4[C@@H]2C3=O)O1	0.894
CCC(C)(C)c1ccc(CC(C)CN2C[C@@H](C)O[C@@H](C)C2)cc1 (stereo partly drawn) [Amorolfine hydrochloride]	0.95
CCCCC1C(=O)N(c2ccccc2)N(c2ccc(O)cc2)C1=O (stereo not drawn)	1.12
CN1CCC(NC(=O)c2cc(-c3c(O)cc(O)cc3Oc3ccc([N+](=O)[O-])cc3)on2)CC1	0.953
COc1ccc(C(=O)CC(=O)c2ccc(C(C)(C)C)cc2)cc1	1.02
CC(C)C[C@H](NC(=O)[C@H](CCc1ccccc1)NC(=O)CN1CCOCC1)C(=O)N[C@@H](Cc1ccccc1)C(=O)N[C@@H](CC(C)C)C(=O)[C@@]1(C)CO1	0.000925
